Cited source: patent US10766952B2

Target: T1, human α-CGRP (Homo sapiens, UniProt P06881)
T1 construct: 1-37 (WT); purchased; host or cells: synthetic peptide
T1 sequence (P06881 83-119 limits assumed): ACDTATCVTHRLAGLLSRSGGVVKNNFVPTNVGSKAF
Experiment: Biacore affinity of antibody G1 Fab and variants to human α-CGRP
Assay type: binding
Settings: 37° C., Fab, screening mode unless underlined
PROPERTY LABEL: α-human koff

Worked examples follow.
{"columns": ["MOLECULE", "α-human koff"],
 "data": [
  ["M81: G1 variant: L1 R28N,T30S; L2 L56S; H2 E54K,A57N,S58E; HC-FW3 L99T,A100V (antibody, V domains shown) VH: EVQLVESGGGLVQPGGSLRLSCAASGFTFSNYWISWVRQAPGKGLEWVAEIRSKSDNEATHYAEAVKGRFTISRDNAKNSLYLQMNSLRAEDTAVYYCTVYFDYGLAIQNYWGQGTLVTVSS VL: EIVLTQSPATLSLSPGERATLSCKASKNVSTYVSWYQQKPGQAPRLLIYGASNRYSGIPARFSGSGSGTDFTLTISSLEPEDFAVYYCSQSYNYPYTFGQGTKLEIK", "0.00049 s⁻¹"],
  ["M44: G1 variant: L1 R28N; L2 G50A,L56T; H2 E54K,A57N,S58E; HC-FW3 L99T,A100V (antibody, V domains shown) VH: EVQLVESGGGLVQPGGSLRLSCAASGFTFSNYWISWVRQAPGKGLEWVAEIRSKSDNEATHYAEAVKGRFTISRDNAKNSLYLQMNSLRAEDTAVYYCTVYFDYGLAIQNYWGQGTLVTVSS VL: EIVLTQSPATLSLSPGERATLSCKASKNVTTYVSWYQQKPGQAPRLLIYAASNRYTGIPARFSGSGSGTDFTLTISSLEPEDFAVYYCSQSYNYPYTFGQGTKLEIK", "0.00021 s⁻¹"],
  ["M38: G1 variant: L1 R28N,T30W; HC-FW3 L99T,A100V (antibody, V domains shown) VH: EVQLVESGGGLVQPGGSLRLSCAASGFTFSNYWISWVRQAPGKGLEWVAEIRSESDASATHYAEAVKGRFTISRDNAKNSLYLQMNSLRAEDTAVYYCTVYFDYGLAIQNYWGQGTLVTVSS VL: EIVLTQSPATLSLSPGERATLSCKASKNVWTYVSWYQQKPGQAPRLLIYGASNRYLGIPARFSGSGSGTDFTLTISSLEPEDFAVYYCSQSYNYPYTFGQGTKLEIK", "0.000218 s⁻¹"]
]}

query: Consider the molecule M37: G1 variant: L1 R28N,T30S; H2 A57G; HC-FW3 L99T,A100V (antibody, V domains shown) VH: EVQLVESGGGLVQPGGSLRLSCAASGFTFSNYWISWVRQAPGKGLEWVAEIRSESDGSATHYAEAVKGRFTISRDNAKNSLYLQMNSLRAEDTAVYYCTVYFDYGLAIQNYWGQGTLVTVSS VL: EIVLTQSPATLSLSPGERATLSCKASKNVSTYVSWYQQKPGQAPRLLIYGASNRYLGIPARFSGSGSGTDFTLTISSLEPEDFAVYYCSQSYNYPYTFGQGTKLEIK and give its measured α-human koff.
result: 0.000226 s⁻¹
